assay: Human HepG2 cell viability assay in 384 well format; format: toxicity, cell-based; set-up: dose 125 nL, time 70.5 hour; concentration not given beside the values; conditions: HepG2 cells, read-out: Inhibition
measurement-label: cytotoxicity at 70.5 h (%)
Please give a number only; it is taken to be in %.

Look over these answered cases.
Given the molecule Cc1ccc(NCc2cn3c(n2)CN(Cc2ccoc2)CC3)nn1 , what is its reported cytotoxicity at 70.5 h?
12

Given the molecule COCCNS(=O)(=O)c1cccc2c1CN(C(=O)c1cnccn1)CC2 , what is its reported cytotoxicity at 70.5 h?
-3.11

Given the molecule Cc1oncc1C(=O)NCc1ccnc(OCC(F)(F)F)c1 , what is its reported cytotoxicity at 70.5 h?
11

Continuing:
Given the molecule Cc1ccc(CN[C@@H]2COC[C@H]2c2ccc(F)cc2)cc1C , what is its reported cytotoxicity at 70.5 h?
3.52

Given the molecule Cc1cnn(CC2CN(CC(=O)N(C)Cc3cnn(C)c3)CCO2)c1 (stereo unspecified) , what is its reported cytotoxicity at 70.5 h?
-7.34

Given the molecule CCC[C@@H]1CN(S(=O)(=O)c2ccc3[nH]c(=O)[nH]c3c2)C[C@H]1NC(C)=O , what is its reported cytotoxicity at 70.5 h?
-1.53

###

test: Human HepG2 cell viability assay in 384 well format; assay type: toxicity, cell-based; design: dose 125 nL, time 70.5 hour; concentration not given beside the values; conditions: HepG2 cells, read-out: Inhibition
Examples of compounds with documented cytotoxicity at 70.5 h follow.
Please give a number only; it is taken to be in %.

Look over these answered cases.
Given the compound CCc1ccc2nc(C)cc(C(=O)NC[C@@H]3CCNC[C@H]3O)c2c1 , what is its reported cytotoxicity at 70.5 h?
14.5

Given the compound Cc1nc(C)n(CC2CCCN2Cc2ccn(-c3ccccc3)n2)n1 (stereo not drawn) , what is its reported cytotoxicity at 70.5 h?
3.67

Given the compound COCc1cc(O)nc(C2CCCN(Cc3cccc(Cl)c3Cl)C2)n1 (stereo not drawn) , what is its reported cytotoxicity at 70.5 h?
-4.6

Given the compound Cc1nccc(C2CCCCN2Cc2ccccc2)n1 (stereo not drawn) , what is its reported cytotoxicity at 70.5 h?
-5

Continuing:
Given the compound Cc1cc(CN2CCC(N(C)Cc3noc(C4CC4)n3)C2)no1 (stereo not drawn) , what is its reported cytotoxicity at 70.5 h?
13

Given the compound COc1cccc(-n2nc(C(C)=O)c(C(C)=O)c2C)c1 , what is its reported cytotoxicity at 70.5 h?
-15.4

Given the compound Cc1ccc2c(c1)OCCN2C(=O)c1ccc(=O)n(C)c1 , what is its reported cytotoxicity at 70.5 h?
-5.4

Given the compound Fc1ccc(CNc2ccccc2Cn2cncn2)cc1 , what is its reported cytotoxicity at 70.5 h?
-7.99

Given the compound CN1CCCc2cc(NC(=O)N3CCOC(C(N)=O)C3)ccc21 (stereo not drawn) , what is its reported cytotoxicity at 70.5 h?
3.77

Given the compound CN(C)CCN1C(=O)CCC12CCCN(C(=O)c1ccncc1F)C2 (stereo not drawn) , what is its reported cytotoxicity at 70.5 h?
15.9

Given the compound CS(=O)(=O)N1CCC2(CC1)CC(NCc1ccccn1)c1ccccc12 (stereo not drawn) , what is its reported cytotoxicity at 70.5 h?
-9.6

###

assay: Human HepG2 cell viability assay in 384 well format; format: toxicity, cell-based; design: dose 125 nL, time 70.5 hour; concentration not given beside the values; conditions: HepG2 cells, read-out: Inhibition
measurement-label: cytotoxicity at 70.5 h (%)
Please give a number only; it is taken to be in %.

Given the molecule CN1CCN(C(=O)c2cccc(OCc3cscn3)c2)CC1 , what is its reported cytotoxicity at 70.5 h?
4.86

Given the molecule COc1cc(N2CC[C@@H]3O[C@H](C(=O)N(C)C)C[C@@H]32)ncn1 , what is its reported cytotoxicity at 70.5 h?
-17.2

Given the molecule CO[C@@]1(C)C[C@@H](O)C12CCN(C(=O)C1(c3ccccc3F)CC1)CC2 , what is its reported cytotoxicity at 70.5 h?
9.4

Given the molecule CN1CC(C(=O)NCc2ccc(Br)cc2F)CC1=O (centres undefined) , what is its reported cytotoxicity at 70.5 h?
-14.4

Continuing:
Given the molecule CC(=O)N(Cc1ncc(C(C)C)o1)C1CCN(Cc2cc(C)on2)C1 (centres undefined) , what is its reported cytotoxicity at 70.5 h?
-6.93

Given the molecule CN(C)CCNc1ccc(-c2nc(-c3ccccc3F)no2)cn1 , what is its reported cytotoxicity at 70.5 h?
0.837
